Test: Chemical stability at varying pH, conversion to NPT 15392 (HPLC)
Format: physicochemical
Details: pH 1.0; 3.5 hours incubation at 37° C.; 0.36 μm/ml
VALUE_TYPE: degraded at 3.5 h, 360 µM (%)
Just the number in %, nothing appended.

Look over these answered cases.
CCCCCC[C@H]([C@H](C)O)n1cnc2c(=O)[nH]cnc21 (relative stereo) [NPT 15392, reference compound]: 100
CCCCCC[C@H]([C@H](C)OC(C)=O)n1cnc2c(=O)[nH]cnc21 (relative stereo) [NPT 15458]: 8

Data request, read-out degraded at 3.5 h, 360 µM, for CCCCCC[C@H]([C@H](C)OC(=O)CCC(=O)O)n1cnc2c(=O)[nH]cnc21 (relative stereo) [NPT 15457]
2
